Where do the numbers come from? From PubChem BioAssay (NCATS).

# Test system: MCC-13
# Assay explanation: qHTS assay to identify novel small-molecules to repurpose for Merkel cell carcinoma treatment (AID 1296009); also: nearly all actives have a fitted effect of over 60% in size
# Measurement conditions: MCC and control cell lines, CellTiter-Glo viability, 72 h; series mostly up to 46 µM
# Description: MCC is a rare and aggressive neuroendocrine skin cancer with limited treatment options. Approximately 80% of MCCs have the Merkel cell polyomavirus (MCPyV) DNA integrated into the host genome (virus-positive: VP-MCC) and viral oncogenes drive oncogenesis. The remaining MCCs are virus-negative (VN-MCC) and are caused by UV mutagenesis. […] Using cell viability as a readout (CellTiter-Glo assay) we found both overlapping and distinct drugs that can be repurposed for the treatment of VP-MCC and VN-MCC. […]
Inconclusive results are not listed. Active and inactive are the calls of the source. Calls follow the shape of the dose curve; as a rule, active = well fitted inhibition curve with a large enough effect; inconclusive = small, poorly fitted or top-dose-only effect; inactive = flat fitted curve, though single readings scatter.
Write down the outcome that applies. Available outcomes: Yes for active, No for inactive

Consider the following illustrative entries.
c1cc(-c2cnn3cc(-c4ccc(OCCN5CCCCC5)cc4)cnc23)ccn1; Yes
N#Cc1c(O)c2c(-c3ccc(-c4ccccc4O)cc3)csc2[nH]c1=O; No
O=C(O)c1ccc2cc(-c3ccc(O)c(C45CC6CC(CC(C6)C4)C5)c3)ccc2c1; Yes
Cc1cc(Nc2cc(N3CCN(C)CC3)nc(C=Cc3ccccc3)n2)n[nH]1; Yes
COc1cc(Nc2ncc(F)c(Nc3ccc4c(n3)N(COP(=O)(O)O)C(=O)C(C)(C)O4)n2)cc(OC)c1OC; No

Hey, what did the test say about CC(C)[C@H](C(=O)Nc1ccc(C(=O)NO)cc1)c1ccccc1 ?
Yes

Query Cc1c(NC(=O)OC[C@@H]2COCCN2)cn2ncnc(Nc3ccc4c(cnn4Cc4cccc(F)c4)c3)c12 next
No

Query O=C(O)C1(Cc2cccc(Nc3nccs3)n2)CCC(Oc2cccc(Cl)c2F)CC1 (stereo unspecified) next
Yes

Query CC[C@@H]1C(=O)N(C)c2cnc(Nc3ccc(C(=O)NC4CCC(N5CCN(CC6CC6)CC5)CC4)cc3OC)nc2N1C(C)C (stereo partly specified) next
Yes

Query CC(O)C1C(=O)N2C(C(=O)O)=C(SC3CNC(C(=O)N(C)C)C3)C(C)C12 (stereo unspecified) next
No

Query CC(=O)Nc1sc2c(c1-c1nc3ccccc3s1)CNC2 next
No

###

# Assay explanation: Cell Proliferation Assay against the TMD8 Cell Line (Caspase readout at 16 hrs) (AID 651712);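 as to caspase activation: 0% = DMSO and 100% = 9.2 µM bortezomib caspase activation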
# Measurement conditions: TMD8 lymphoma cells, caspase activation luminescence; series mostly up to 46.1 µM
Records with an inconclusive call do not appear. The source made the active and inactive calls. The call rests on the fitted dose curve; in most records, active means well fitted activation curve with a large enough effect; inconclusive means small, poorly fitted or top-dose-only effect; inactive means flat fitted curve, though single readings scatter.
Write down the outcome that applies. Available outcomes: 1 = active, 0 = inactive

Consider the following illustrative entries.
Cc1ccc(C(N)=O)cc1Nc1nccc(-c2cn(C(C)C)c3cnccc23)n1; 1
CC(C)[C@H](C(=O)Nc1ccc(C(=O)NO)cc1)c1ccccc1; 1
Cc1ccc(C(=O)Nc2ccc(CN3CCN(C)CC3)c(C(F)(F)F)c2)cc1C#Cc1cnc2cccnn12; 1
O=c1[nH]nc(Sc2ncc([N+](=O)[O-])s2)n1-c1ccc2c(c1)OCCO2; 0

Hey, what did the test say about COc1ccc(OC)c(-c2nnc3ccc(-c4ccc(OC)c(O[C@@H]5CCOC5)c4)nn23)c1 ?
1

Query O=C(O)[C@H](Cc1c[nH]c2ccccc12)N1C(=O)c2ccccc2C1=O next
0

Query Nc1cc(C(F)(F)F)c(-c2cc(N3CCOCC3)nc(N3CCOCC3)n2)cn1 next
1

Query c1ccc2c(CCNc3ccc(Nc4ccncc4)cc3)c[nH]c2c1 next
1

Query CC(C)(C)OC(=O)Nc1ccc(-c2cc(C(=O)NCCCCCCC(=O)NO)no2)cc1 next
1

Query N#CCNC(=O)c1ccc(-c2ccnc(Nc3ccc(N4CCOCC4)cc3)n2)cc1 next
1

Query CCN1CCN(Cc2ccc(-c3cc4c(N[C@H](C)c5ccccc5)ncnc4[nH]3)cc2)CC1 next
1

Query COC(=O)c1ccc2c(C(=Nc3ccc(N(C)C(=O)CN4CCN(C)CC4)cc3)c3ccccc3)c(O)[nH]c2c1 next
1

Query O=C(C=Cc1cccc(S(=O)(=O)Nc2ccccc2)c1)NO next
1

Query Nc1nc(Nc2ccc(S(N)(=O)=O)cc2)nn1C(=O)c1c(F)cccc1F next
1

Query CCN(CC)CCCCNc1ncc2cc(-c3cc(OC)cc(OC)c3)c(NC(=O)NC(C)(C)C)nc2n1 next
0

Query COCCn1c2c([n+](Cc3cnccn3)c1C)C(=O)c1ccccc1C2=O next
0

Query Nc1ccc(C(=O)c2cc3c(ccc4ccccc43)[nH]2)cc1 next
1

Query COc1ccc2c(c1)CC[C@@H](CN(C)CC(=O)O)[C@H]2c1ccccc1 next
0

Query CC(=O)SC[C@@H](C)C(=O)N1CCC[C@H]1C(=O)N[C@@H](Cc1ccccc1)C(=O)O next
0

Query CC(C)(C)c1cc(NC(=O)Nc2ccc(-c3cn4c(n3)sc3cc(OCCN5CCOCC5)ccc34)cc2)no1 next
0

Query CC1(C)OC2=C(C(=O)c3ccccc3C2=O)[C@H](NCc2ccccc2)[C@H]1O next
0

Query CC(C)=CCCC(C)=CCCC(C)=CCSc1ccccc1C(=O)O next
0

Query O=C(C=Cc1cccnc1)NCCCCC1CCN(C(=O)c2ccccc2)CC1 next
0

Query CC(C)c1ccccc1Cc1cc(C(=O)Nc2ccc(S(=O)(=O)c3ccccc3C(C)(C)C)cc2)c(O)c(O)c1O next
1

###

# Assay explanation: Quantitative High-Throughput drug screen in 47 multiple myeloma cell lines against the NCATS MIPE library collection: KMS12PE_JCRB cell viability assay (AID 1918972);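 also: 100% = DMSO only wells and 0% = wells with media alone; nearly all actives have a fitted effect of over 30% in size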
# Measurement conditions: KMS12PE myeloma viability, CellTiter-Glo ATP, 48 h; series mostly up to 45.8 µM
# Excerpt: PI: Beverly A. Mock Ph.D. Laboratory of Cancer Biology and Genetics, Center for Cancer Research, National Cancer Institute, National Institute of Health, Bethesda, Maryland […] 5; Detector; 425V; Luminescence; Viewlux PerkinElmer. […] 1. […] Briefly, the corresponding myeloma cell lines were screened in 1,536-well plates with 500 cells, 5-uL per well for inhibition of cell viability (assessed by measuring ATP levels with CellTiterGlo). […]
Results filed as inconclusive are left out. Activity calls are given as the source filed them. The call rests on the fitted dose curve; in most records, active means well fitted cell-killing curve with a large enough effect; inconclusive means small, poorly fitted or top-dose-only effect, or effect the other way; inactive means no such curve, though single readings can be large or run the other way.
Write down the outcome that applies. Available outcomes: 1 for active, -1 for inactive

Hey, what did the test say about O=C(CCCCCCC(=O)Nc1ccc([C@H]2O[C@@H](CSc3nc(-c4ccccc4)c(-c4ccccc4)o3)C[C@@H](c3ccc(CO)cc3)O2)cc1)NO ?
-1

Query Cc1cn2cc(C(=O)N(C)CCO)cc(N[C@@H]3CCOc4cccc(C)c43)c2n1 next
-1

###

# Assay explanation: qHTS of pediatric cancer cell lines to identify multiple opportunities for drug repurposing: Primary screen for SK-N-MC cells (AID 1347093)
# Measurement conditions: SK-N-MC viability, CellTiter-Glo luminescence, 48 h; series mostly up to 46 µM
Inconclusive results are not listed. The source made the active and inactive calls. Calls come from the whole dose curve; as a rule, active = well fitted cell-killing curve with a large enough effect; inconclusive = small, poorly fitted or top-dose-only effect; inactive = no such curve, though single readings can be large or run the other way.
Write down the outcome that applies. Available outcomes: label 1 (active), label 0 (inactive)

Consider the following illustrative entries.
CN1CCN(Cc2ccc(NC(=O)Nc3ccc(Oc4cc(NC(=O)C5CC5)ncn4)cc3)cc2C(F)(F)F)CC1; label 1
Cc1ccc(C(=O)Nc2ccc(CN3CCN(C)CC3)c(C(F)(F)F)c2)cc1C#Cc1cnc2cccnn12; label 1
CC(C)(C)NC(=O)[C@H]1CN(Cc2cccnc2)CCN1C[C@@H](O)C[C@@H](Cc1ccccc1)C(=O)N[C@H]1c2ccccc2C[C@H]1O; label 1
Cc1cc(N2CCOCC2)cc2[nH]c(-c3c(NC[C@@H](O)c4cccc(Cl)c4)cc[nH]c3=O)nc12; label 1
O=c1c2ccccc2nc2n1CCc1c-2[nH]c2ccccc12; label 0

Hey, what did the test say about COc1cc(C(=O)NS(=O)(=O)c2ccccc2C)ccc1Cc1cn(C)c2ccc(NC(=O)OC3CCCC3)cc12 ?
label 1

Query COc1cc2c(Oc3ccc(NC(=O)C4(C(=O)Nc5ccc(F)cc5)CC4)cc3F)ccnc2cc1OCCCN1CCOCC1 next
label 1

Query O=C(CCCCCCNC(=O)c1cnc(N(c2ccccc2)c2ccccc2)nc1)NO next
label 1

Query CNC(=O)CN1CCC(Oc2cc3c(Nc4cccc(Cl)c4F)ncnc3cc2OC)CC1 next
label 1

Query CN(C1CCc2c(c3ccccc3n2CC(=O)O)C1)S(=O)(=O)c1ccc(F)cc1 (stereo unspecified) next
label 1

Query CCC1=C[C@@H]2CN(C1)Cc1c([nH]c3ccccc13)[C@@](C(=O)OC)(c1cc3c(cc1OC)N(C)[C@@H]1[C@@](O)(C(=O)OC)[C@H](OC(C)=O)[C@]4(CC)C=CCN5CC[C@]31[C@@H]54)C2 next
label 1

Query Cc1ccc(CN2CCNCC2)cc1NC(=O)CNc1ccc(F)c(F)c1 next
label 0

Query CCN(CC)CCNC(=O)c1ccc2nc(-c3ccccc3)c(-c3ccc(CN4CCC(n5c(=O)[nH]c6ccccc65)CC4)cc3)nc2c1 next
label 1

Query O=C(O)c1ccc2c(c1)nc(Nc1cccc(Cl)c1)c1ccncc12 next
label 1
